The measurements presented in this section are drawn from ChEMBL document CHEMBL3593169.

Here the recorded MIC is given for each entry.
Test system: Staphylococcus aureus
Method description: Antimicrobial activity against Staphylococcus aureus incubated for 4 days by broth microdilution method
Format: functional
Condition summary: 96 h
Parameter measured: MIC (µg/mL)

INSERT INTO assay_data (molecule, assayed_target, unit_of_measure, relation_operator, assay_value) VALUES
  ('CN[C@H](CC(C)C)C(=O)N[C@H]1C(=O)N[C@@H](CC(N)=O)C(=O)N[C@H]2C(=O)N[C@H]3C(=O)N[C@H](C(=O)N[C@H](C(=O)O)c4cc(O)cc(O)c4-c4cc3ccc4O)[C@H](O)c3ccc(c(Cl)c3)Oc3cc2cc(c3O[C@@H]2O[C@H](CO)[C@@H](O)[C@H](O)[C@H]2O[C@H]2C[C@](C)(N)[C@H](O)[C@H](C)O2)Oc2ccc(cc2Cl)[C@H]1O [VANCOMYCIN]', 'Staphylococcus aureus', 'µg/mL', '=', 0.25),
  ('O=C1c2c(O)cc(O)cc2OC[C@H]1Cc1ccc(O)cc1', 'Staphylococcus aureus', 'µg/mL', '>', 125),
  ('COc1c(O)cc(O)c2c1OC/C(=C\c1ccc(O)cc1)C2=O', 'Staphylococcus aureus', 'µg/mL', '>', 48),
  ('COc1ccc(C[C@@H]2COc3cc(O)cc(O)c3C2=O)cc1O', 'Staphylococcus aureus', 'µg/mL', '>', 138),
  ('COc1cc(O)c2c(c1OC)OC/C(=C\c1ccc(O)c(O)c1)C2=O', 'Staphylococcus aureus', 'µg/mL', '=', 93);

====

Some molecules, each annotated with its measured MIC.
System: Aspergillus niger
Method description: Antimicrobial activity against Aspergillus niger incubated for 4 days by broth microdilution method
Assay type: functional
Condition summary: 96 h
Parameter measured: MIC

INSERT INTO assay_data (molecule, parameter_measured, assay_value) VALUES
  ('O=C1c2c(O)cc(O)cc2OC[C@H]1Cc1ccc(O)cc1', 'MIC', '> 125 µg/mL'),
  ('COc1ccc(C[C@@H]2COc3cc(O)cc(O)c3C2=O)cc1O', 'MIC', '> 138 µg/mL'),
  ('COc1cc(O)c2c(c1OC)OC/C(=C\c1ccc(O)c(O)c1)C2=O', 'MIC', '> 93 µg/mL'),
  ('COc1c(O)cc(O)c2c1OC/C(=C\c1ccc(O)cc1)C2=O', 'MIC', '> 48 µg/mL'),
  ('C[C@@H]1[C@H](O)[C@@H](C)/C=C/C=C/C=C/C=C/C=C/C=C/C=C/[C@H](O[C@@H]2O[C@H](C)[C@@H](O)[C@H](N)[C@@H]2O)C[C@@H]2O[C@](O)(C[C@@H](O)C[C@@H](O)[C@H](O)CC[C@@H](O)C[C@@H](O)CC(=O)O[C@H]1C)C[C@H](O)[C@H]2C(=O)O [AMPHOTERICIN B]', 'MIC', '31 µg/mL');

====

Tested on: MDA-MB-435
Method description: Cytotoxicity against human MDA-MB-435 cells assessed as reduction in cell growth incubated for 72 hrs
Format: functional, cell-based
Condition summary: MDA-MB-435, 72 h
pIC50: −log10 of the molar value.
Measured pIC50 accompanies every entry in the list below.
Parameter measured: pIC50

INSERT INTO measurements (compound, assay_value) VALUES
  ('COc1cc(O)c2c(c1O)OC[C@@H](Cc1ccc(O)cc1)C2=O', '< 4.70'),
  ('CS/C=C/C(=O)OC[C@H](O)c1ccccc1', '< 4.70'),
  ('COc1cc2c(c(O)c1O)C(=O)[C@H](Cc1ccc(O)cc1)CO2', '< 4.70'),
  ('CC[C@]1(O)C[C@@H]2CN(CCc3c([nH]c4ccccc34)[C@@](C(=O)OC)(c3cc4c(cc3OC)N(C)[C@H]3[C@@](O)(C(=O)OC)[C@H](OC(C)=O)[C@]5(CC)C=CCN6CC[C@]43[C@@H]65)C2)C1', 9.30),
  ('COc1c(O)cc(O)c2c1OC/C(=C\c1ccc(O)cc1)C2=O', '< 4.70'),
  ('COc1cc(O)c2c(c1OC)OC[C@@H](Cc1ccc(O)c(O)c1)C2=O', '< 4.70'),
  ('COc1c(O)c(O)c2c(c1OC)OC[C@@H](Cc1ccc(O)cc1)C2=O', '< 4.70'),
  ('COc1cc(/C=C/C(=O)NCCc2ccc(O)cc2)ccc1O [N-TRANS-FERULOYL TYRAMINE]', '< 4.70'),
  ('COc1cc(O)c2c(c1OC)OCCC2=O', '< 4.70');

====

Test system: Mycolicibacterium smegmatis
Method description: Antimicrobial activity against Mycobacterium smegmatis incubated for 4 days by broth microdilution method
Format: functional
Condition summary: 96 h
Parameter measured: MIC (µg/mL)

INSERT INTO measurements (line_notation, unit_of_measure, assay_value) VALUES
  ('COc1cc(O)c2c(c1OC)OC/C(=C\c1ccc(O)c(O)c1)C2=O', 'µg/mL', 47),
  ('COc1c(O)cc(O)c2c1OC/C(=C\c1ccc(O)cc1)C2=O', 'µg/mL', 24),
  ('O=C1c2c(O)cc(O)cc2OC[C@H]1Cc1ccc(O)cc1', 'µg/mL', 63);
